Could you please report measured IC50 of indirect killing assay to evaluate the internalization in AsPC1 cells for the items listed next?
# targetDesc: human CDH17 as originally expressed in cells (cell surface CDH17 on AsPC1, GP2d and other cancer cell lines) (human, UniProt Q12864 23-832)
# assayComment: cell-based or functional assay
Numbers only, in nM.

Reference set, count: 4
[
  {
    "binder": "19C7 anti-CDH17 recombinant antibody (human IgG1) (antibody, V domains shown) VH: QITLKESGPTLVKPTQTLTLTCTFSGISLSTGGVGVGWIRQPPGKALEWLSLIYWNDDKRYSPSLKSRLTITKDSSKNQVVLTMTNMDPVDTATYYCAHSGLAAPFYNWFDPWGQGTLVTVSS VL: DIQMTQSPSSLSASVGDRVTITCRASQSISNYLNWYQLKPGNAPKLLIFAASSLQSGVPSRFSGSGSGTDFTLTISSLQPEDFATYFCQRSYSTLTFGGGTKVEIKR",
    "reportedMeasurement": 0.09
  },
  {
    "binder": "15A4 anti-CDH17 recombinant antibody (human IgG1) (antibody, V domains shown) VH: QVQLVESGGGVVQPGRSLRLSCAASGFNFSSYGMHWVRQAPGKGLEWVAFVWYDGSNQNYADSVKGRFTISRDNSNNTLYLQMNSLRAEDTAVYYCARDRYSSGWDVFDYWGQGTLVTVSS VL: DIQMTQSPSSVSASVGDRVTITCRASQGISSWLAWYQQKPGKAPKLLIFAASSLQSGVPSRFSGSGSGTGFTLTISSLQPEDFATYYCQQAKSFPPTFGQGTKVEIKR",
    "reportedMeasurement": 1.99
  },
  {
    "binder": "1H10 anti-CDH17 recombinant antibody (human IgG1) (antibody, V domains shown) VH: QVQLVESGGGVVQPGRSLRLSCVASGFTFSSYGMHWVRQAPGKGLEWVTFIWYDGSNKNYADSVKGRFTISRDNSKNTLNLQMNSLRVEDTAVYYCARDRYSSGWDVFDYWGQGTLVTVSS VL: DIQMTQSPSSVSASVGDRVTITCRASQDISSWLAWYQQQPGKAPKLQIYAASSLQSGVPSRFSGSGSGTDFTLTISSLQPEDFATYYCQQAKSFPPTFGQGTKVEIKR",
    "reportedMeasurement": 0.19
  },
  {
    "binder": "9E2 anti-CDH17 recombinant antibody (human IgG1) (antibody, V domains shown) VH: EVQLVESGGGVVRPGGSLRLSCAASGFTFDNYGMSWVRQAPGKGLEWVSGINWNGGSTYYADSVRGRFTISRDNAKNSLYLQMNSLRAEDTALYYCARGSRYNWSYDAFDIWGQGTLVTVSS VL: DIQMTQSPSSLSASVGDRVTITCRASQGVRNALGWYQQKPGKAPKRLIYAASSLQSGVPSRFSGSGSGTEFTLTISSLQPEDFATYYCLQHNSYPFTFGPGTKVEIKR",
    "reportedMeasurement": 0.15
  }
]

Field: next binder
Query: Retrieve IC50 of indirect killing assay to evaluate the internalization in AsPC1 cells measured for 17F3 anti-CDH17 recombinant antibody (human IgG1) (antibody, V domains shown) VH: EVQLVESGGGLVKSGGSLRLSCAASGFTFSSYSLKWVRQAPGKGLEWVSSISSSSGYIYYADSVKGRFTISRDNAKNSLYLQMNSLRAEDTAMYYCARAVSTIAARPGYYYYYMDVWGKGTLVTVSS VL: DIQMTQSPSSVSASIGDRVTITCRASQDISTWFAWYQQKPGKAPKLLIYAASTLRSGVPSRFSGSGSGTDFTLTINSLQPEDFATYYCQQANSFPLTFGGGTKVEIKR and print it.
Result: 0.08
